experiment: Half life period in rat after (iv) administration; type: ADME, organism-based; conditions: in vivo
measuredQuantity: half-life (min)
Report the figure in min without appending any unit label.

The recorded half-life for N#CN1CCC(NS(=O)(=O)c2ccccc2)C1 (stereo unspecified) is 120

----------
Biological target: UniProt:P43235
Sequence (P43235 whole entry): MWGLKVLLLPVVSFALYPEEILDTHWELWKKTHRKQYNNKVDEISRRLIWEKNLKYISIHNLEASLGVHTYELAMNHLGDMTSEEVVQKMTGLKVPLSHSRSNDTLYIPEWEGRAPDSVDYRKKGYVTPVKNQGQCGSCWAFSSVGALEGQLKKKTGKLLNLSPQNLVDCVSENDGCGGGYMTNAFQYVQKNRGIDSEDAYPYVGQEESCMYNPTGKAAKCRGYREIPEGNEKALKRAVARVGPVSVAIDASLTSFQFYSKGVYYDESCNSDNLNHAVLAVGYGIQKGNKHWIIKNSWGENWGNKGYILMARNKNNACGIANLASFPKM
Test: Inhibition of Cathepsin K at pH 5.5
measuredQuantity: IC50

Answered cases to consult:
N#CN1CCC(NC(=O)OCc2ccccc2)C1 (stereo not given): 60 nM
N#CN1CCC1: 450 nM

The recorded IC50 for N#CN1CCCC1 [CYANO-PYRROLIDINE] is 1630 nM

The recorded IC50 for N#CN1CC(CNC(=O)C2CCCCC2)C1 is 16 nM

The recorded IC50 for N#CN1Cc2cc3ccccc3nc2C1 is 340 nM

Source listed as ChEMBL document CHEMBL1134467.
